Target: 3-hydroxy-3-methylglutaryl-coenzyme A reductase (Homo sapiens, UniProt P04035)
Sequence (P04035 whole entry): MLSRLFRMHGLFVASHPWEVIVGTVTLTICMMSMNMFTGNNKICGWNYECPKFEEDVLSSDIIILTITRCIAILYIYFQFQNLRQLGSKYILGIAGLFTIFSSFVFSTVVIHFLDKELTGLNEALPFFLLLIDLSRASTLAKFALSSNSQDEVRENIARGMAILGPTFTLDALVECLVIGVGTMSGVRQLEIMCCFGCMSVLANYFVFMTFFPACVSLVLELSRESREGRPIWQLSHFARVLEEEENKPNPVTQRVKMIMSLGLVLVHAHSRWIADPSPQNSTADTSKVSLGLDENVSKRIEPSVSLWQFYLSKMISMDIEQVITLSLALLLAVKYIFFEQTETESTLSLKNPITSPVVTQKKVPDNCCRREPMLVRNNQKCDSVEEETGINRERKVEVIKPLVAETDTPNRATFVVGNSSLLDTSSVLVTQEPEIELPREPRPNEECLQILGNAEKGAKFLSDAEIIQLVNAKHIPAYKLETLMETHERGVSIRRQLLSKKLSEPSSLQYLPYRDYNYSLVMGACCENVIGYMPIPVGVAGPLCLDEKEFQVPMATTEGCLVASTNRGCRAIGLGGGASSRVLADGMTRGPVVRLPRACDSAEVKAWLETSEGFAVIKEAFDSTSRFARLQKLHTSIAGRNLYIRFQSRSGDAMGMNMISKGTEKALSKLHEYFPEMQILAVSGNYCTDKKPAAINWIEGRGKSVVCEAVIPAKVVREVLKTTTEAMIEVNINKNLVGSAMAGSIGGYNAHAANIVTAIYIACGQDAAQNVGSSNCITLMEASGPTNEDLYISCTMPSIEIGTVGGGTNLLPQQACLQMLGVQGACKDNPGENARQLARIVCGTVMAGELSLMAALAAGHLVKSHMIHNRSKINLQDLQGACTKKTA
Assay: Concentration required to inhibit HMG-CoA reductase by 50% was determined in Hep G2 cell line
RECORDED METRIC: IC50 (nM)

COMPOUND: CC[C@H](C)C(=O)O[C@H]1C[C@H](O)C[C@@H]2C=C[C@H](C)[C@H](CCC3C[C@@H](O)CC(=O)O3)[C@@H]12 (some centres undefined)
RECORDED METRIC: IC50
MEASURED NUMBER: 1400
//
COMPOUND: CC[C@H](C)C(=O)O[C@H]1C[C@H](O)C[C@@H]2C=C[C@H](C)[C@H](CC[C@H](O)C[C@H](O)CC(=O)O)[C@@H]12
RECORDED METRIC: IC50
MEASURED NUMBER: 2220

[P] CC[C@H](C)C(=O)O[C@H]1C[C@@H](C)C=C2C=C[C@H](C)[C@H](CC[C@@H](O)C[C@@H](O)CC(=O)O)[C@H]21
[Q] CCC(C)(C)C(=O)O[C@H]1C[C@@H](C)C=C2C=C[C@H](C)[C@H](CC[C@@H](O)C[C@@H](O)CC(=O)O)[C@H]21
Would you mind telling me which has the lower recorded IC50 between P and Q ? In your reply, give the label of the chosen option.
Q
(Q: 12 nM, P: 29 nM)

Where do the numbers come from? From ChEMBL document CHEMBL1126120.
